- PROCEDURE SUMMARY: protease stability score; higher = more stable; yeast display proteolysis, trypsin and chymotrypsin;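 further: relative to predicted unfolded state with 0 unfolded-like and 1 meaning tenfold more protease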

SEQUENCE RECORD	protease stability score
DEKTEHERELSERLLKAILTGDEDLFKELADPNVRIISEIDGRKDESHGWTAWHRIMQSLGFNVMRIDHHELINGVQYVESTLDINGVRRKTHLIIRIINGKVKEVRFSID	1.88
DEEEEYLHKRAREFFRSFLTGDWHFLMHLLDPNVRWEVIIGNKRIERHGREELFKDLLRWLEEIRIKRMHVEEIHVFDGQLFMRVSAHGEFNGKERDTHEELVVVVVNGRFKSARIHVH	1.65
EEELELAKKIADTFNHDMETGDEKSRWDLFDPNVRIDWNGKDLHGWEQEEEELERLGITKVELEIKRKEVQGDKVILDGTVRFNGRSTRVHVHIRVVNGRLKSIKIIIR	0.345
SEAEESARKLTHDILRLFLTGDEDLISRYFDPNVRHHINGQEEHGMEKMVKMLNHMRFRDMHLRDVRIHIIDGVATAHVEGELHGEVNGVRRDIKSELIIITEKFNGRWRLSSISFIIE	0.256
DESREIAHKFLEIWIDAFKTGDEDLNSELLDPNTRRDVGDFRIHGMELIVKIMSKELEKYKGITFRVKIRHSTWQGDKIHLIVDILIIIGDKEERIETHFILEKIDGRWITTHMQIR	1.34

====

- PROCEDURE SUMMARY: protease stability score; higher = more stable; yeast display proteolysis, trypsin and chymotrypsin;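 further: relative to predicted unfolded state with 0 unfolded-like and 1 meaning tenfold more protease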
protease stability score values for the sequences below.
MEASURED PARAMETER: protease stability score

SEQUENCE RECORD	MEASURED PARAMETER	VAL
KELERDSREATHTFLRDIKTGDFESLHRLADPTTRMHIGDKEFHGWELLIHVIAEFLRKVPNMRTTLRDERVQGEKVEVRVDIHYNGQDRHIELEIHKVNGKWWIKVMEFE	protease stability score	0.88
SDKDHLFKWAVRHLLEFTQTGNWEHMEHYLDPNVRLNFHIDGVSIERHGMEFLKKLLRDLSEDAGLDNINVQLHSFEIQGEKVNIHLKETFNGRHHETHNVVFKFDGRWKLTKSEVFFL	protease stability score	0.913
HEDEELSEKWLEDILRDHETGNEHRLRELFDPDARSHVGDKKIIGREDWSRALKEFIEKFPGVRIEIRHHENDIVGDKVRLDVTIILNFNGVEHEMKVTLILRKYNGRWRIREIRIR	protease stability score	1.25
DEDEHYAREAVHLVYEILHTGDEHELMKYADPDTRIDIGDKTHIGRDRVVEAIHKMHKKLGVDHEVLTDSKVHWQGNKIEIYLKIEIHVGDKRFEMDIIIHLEKINGRWRVKSMRIDFR	protease stability score	1.33
DEREELAEHMIRLLTERLITGDERIEQELADPNVRFELDINGKSVDTHGMENVLEWIRKWYEHFGVTNFDLRIHRIRVIGEYAHNDGEIIQGDKTRRVHIRMVVINGRVHEVIIHVR	protease stability score	1.22

====

protease stability score values for the sequences below.
- PROCEDURE SUMMARY: protease stability score; higher = more stable; yeast display proteolysis, trypsin and chymotrypsin;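 further: relative to predicted unfolded state with 0 unfolded-like and 1 meaning tenfold more protease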
MEASURED PARAMETER: protease stability score

SEQUENCE RECORD	VAL
SEHKEEVHEMIKLFLEALRTGDEDWLKTMIDPNDRIRVGDKELHGREEFDKIVHFFKNARIHLHHYSVINGRVTIHMILHFNGKTFEIHIYAEKVDGRWRHRESEMHER	1.38
RDEEEEARRMMEIFLEDVRTGDEDSLKELADPNVKSEINGVELVGREEVLKTLREILRELGVSNVEVRLHRIHVYDGRAHIDGRLNVNGRELEMHVDMEKVDGRWRIRRIELR	2.27
SEHDEHIEHLLKEIIEDIETGDWHHWRHLADPHTRMEVGDKEKHGWKVYFEILHRYRGARLEFKSVDVQGDKIHVETHVHVNGRSFDTELRFYIVNGKMQEVIIQFR	0.85
